- Test system: U2OS
- METHOD_NOTES: Multiplex assay against U2OS
- Assay type: toxicity, cell-based
- PROTOCOL_CONDITIONS: human, 24 h, 10 µM, compound concentration 10 uM, replicate 2
Mark True for Population Mitotic Cells (%) under 10%, False if at or over.

{"SMILES_STRUCTURE": "C=C1/C(=C\\C=C2/CCC[C@]3(C)[C@@H]([C@H](C)/C=C/[C@H](C)C(C)C)CC[C@@H]23)C[C@@H](O)C[C@@H]1O", "ASSIGNED_CLASS": "False"}
{"SMILES_STRUCTURE": "O=C1N/C(=N/c2ccccc2F)S/C1=C\\c1ccc(C(=O)O)cc1", "ASSIGNED_CLASS": "False"}
{"SMILES_STRUCTURE": "CCN1CCN(Cc2ccc(Nc3ncc(F)c(-c4cc(F)c5nc(C)n(C(C)C)c5c4)n3)nc2)CC1.CS(=O)(=O)O", "ASSIGNED_CLASS": "True"}
{"SMILES_STRUCTURE": "Cl.O=c1c2cccn2c2ccccc2n1CCCN1CCC(c2ccc(Cl)cc2)CC1", "ASSIGNED_CLASS": "False"}

====

# Growth Rate annotations
- System: Fibroblast
- METHOD_NOTES: Incucyte cell viability with human fibroblast; note: filed as whole numbers so only -1 and 0 and 1 occur
- Format: toxicity, cell-based
- PROTOCOL_CONDITIONS: 18 h, 10 µM, compound concentration 10 uM, replicate number 2, timepoint 18 hours

{"COMPOUND": "O=C(Nc1cccnn1)N1CC(C/C=C/c2cncc(Oc3ccc(C(F)(F)F)cn3)n2)C1", "Growth Rate": 1}
{"COMPOUND": "COCC(=O)NC/C=C/c1ccc2ncnc(Nc3ccc(Oc4ccc(C)nc4)c(C)c3)c2c1 [CP-724714]", "Growth Rate": 0}
{"COMPOUND": "CC1(C)C(=O)C(C)(C)c2cc(C(=O)Nc3ccc(C(=O)O)cc3)ccc21", "Growth Rate": 1}
{"COMPOUND": "Nc1cc(F)ccc1NC(=O)/C=C/c1cnn(C/C=C/c2ccccc2)c1", "Growth Rate": 0}
{"COMPOUND": "Cc1nc(-c2ccc(C(F)(F)F)cc2)sc1COc1ccc([C@H](CC(=O)O)c2ccon2)cc1", "Growth Rate": 0}
{"COMPOUND": "NC(CCP(=O)(O)O)C(=O)O (racemic)", "Growth Rate": 1}
{"COMPOUND": "Cn1nc(C(F)(F)F)cc1-c1cnc(N2CCc3cc(S(=O)(=O)Nc4c(F)cc(Cl)cc4F)cc(N4CCCC4=O)c32)nc1 [TP-020]", "Growth Rate": 0}
{"COMPOUND": "CC(C)C[C@H](CO)Nc1nc(S[C@@H](C)c2ccccc2)nc2nc(N)sc12 [AZD-8797]", "Growth Rate": 1}
{"COMPOUND": "Cc1nc(NC(=O)N2CCC[C@H]2C(N)=O)sc1-c1ccnc(C(C)(C)C(F)(F)F)c1 [ALPELISIB]", "Growth Rate": 0}
{"COMPOUND": "CCCCCCCCCCCCCCCCOC[C@H](COP(=O)([O-])OCC[N+](C)(C)C)OC(C)=O", "Growth Rate": 0}
{"COMPOUND": "CS(=O)(=O)NCC[C@H](NC(=O)c1cncc2c1cnn2-c1ccc(F)cc1)c1ccnc(S(C)(=O)=O)c1 [BI 9307]", "Growth Rate": 1}
{"COMPOUND": "CC(C)c1onc(-c2c(Cl)cccc2Cl)c1COc1ccc(/C=C/c2cccc(C(=O)O)c2)c(Cl)c1", "Growth Rate": 1}
{"COMPOUND": "Cc1nnc2c3ccccc3c(N[C@@H](C)[C@H](c3ccccc3)N(C)C)nn12", "Growth Rate": 0}
{"COMPOUND": "NC(=O)c1cccc(-c2cc(Nc3ccc(OC(F)(F)F)cc3)ncn2)c1", "Growth Rate": 1}
{"COMPOUND": "Cl.O=C([C@@H](Cc1cccc(C(F)(F)F)c1)NS(=O)(=O)c1cc(F)c2c(c1)CCNC2)N1CCCC1", "Growth Rate": 1}
{"COMPOUND": "COc1ccc(-c2ccc3c(N4CCOCC4)nc(N4C[C@@H](C)O[C@@H](C)C4)nc3n2)cc1CO [Ku-0063794]", "Growth Rate": 0}
{"COMPOUND": "COc1cc(OC)cc(-c2noc(N3CCN(C)C4(CCN(c5ccnc(C)c5)CC4)C3)n2)c1", "Growth Rate": 0}
{"COMPOUND": "C=CC(=O)N1CCC([C@@H]2CCNc3c(C(N)=O)c(-c4ccc(Oc5ccccc5)cc4)nn32)CC1 [ZANUBRUTINIB]", "Growth Rate": 1}
{"COMPOUND": "CC(C)(C(=O)O)c1ccc(C(O)CCCN2CCC(C(O)(c3ccccc3)c3ccccc3)CC2)cc1.Cl (stereo unspecified) [FEXOFENADINE HYDROCHLORIDE]", "Growth Rate": 1}
{"COMPOUND": "O=C1O[C@]2(CC[C@H](C(=O)Nc3ccn(-c4ccccc4F)n3)CC2)c2cnccc21 [MK-0557]", "Growth Rate": 1}
{"COMPOUND": "C=C1/C(=C\\C=C2/CCC[C@]3(C)[C@@H]([C@H](C)/C=C/[C@H](C)C(C)C)CC[C@@H]23)C[C@@H](O)C[C@@H]1O [DOXERCALCIFEROL]", "Growth Rate": 0}
{"COMPOUND": "Cl.O=C(O)Cc1cccc(OCCCN(Cc2cccc(C(F)(F)F)c2Cl)CC(c2ccccc2)c2ccccc2)c1", "Growth Rate": 0}
{"COMPOUND": "CN(C)C(=O)c1cc2cnc(Nc3ccc(N4CCNCC4)cn3)nc2n1C1CCCC1 [RIBOCICLIB]", "Growth Rate": 1}
{"COMPOUND": "OCCn1cc(-c2cnc3nnn(Cc4ccc5ncccc5c4)c3n2)cn1 [PF-04217903]", "Growth Rate": 0}
{"COMPOUND": "CCC(=N\\O)/C(C)=C/c1ccc(F)c(C)c1 [A-226]", "Growth Rate": 1}
{"COMPOUND": "Cn1cc(CCn2cnc(-c3cnn(C)c3)c2-c2ccc(C#N)cc2)cn1", "Growth Rate": 0}

====

- Test system: HEK-293T
- METHOD_NOTES: Multiplex assay against HEK293T
- Assay type: toxicity, cell-based
- PROTOCOL_CONDITIONS: human, 48 h, 10 µM, compound concentration 10 uM, replicate 1
# Population Healthy Nuclei (%) annotations

{"MOLECULE": "CCn1c(=O)c(-c2ccc(-c3cncs3)cc2Cl)cc2cnc(Nc3ccc(N4CCN(C)CC4)cc3)nc21", "Population Healthy Nuclei (%)": 6}
{"MOLECULE": "CCN1CCN(Cc2ccc(Nc3ncc(F)c(-c4cc(F)c5nc(C)n(C(C)C)c5c4)n3)nc2)CC1.CS(=O)(=O)O", "Population Healthy Nuclei (%)": 0}
{"MOLECULE": "S=C(NCCCc1c[nH]cn1)NCCCN(Cc1ccc(Cl)c(Cl)c1)c1ccc(Br)cn1", "Population Healthy Nuclei (%)": 0}
{"MOLECULE": "O=C1N/C(=N/c2ccccc2F)S/C1=C\\c1ccc(C(=O)O)cc1", "Population Healthy Nuclei (%)": 45}
{"MOLECULE": "O=C(Nc1ccc(-n2nc(-c3cccnc3)cc2C(F)(F)F)cn1)c1ccc(-c2ccccc2)c(F)c1 [BI 2049]", "Population Healthy Nuclei (%)": 28}

====

- Test system: Fibroblast
- METHOD_NOTES: Multiplex assay against human fibroblast
- Format: toxicity, cell-based
- PROTOCOL_CONDITIONS: 24 h, 1 µM, compound concentration 1 uM, replicate 2
# Population Tubulin-Different-Phenotype (%) annotations
TEST_READOUT: Population Tubulin-Different-Phenotype (%)

{"SMILES_STRUCTURE": "CCN1CCN(Cc2ccc(Nc3ncc(F)c(-c4cc(F)c5nc(C)n(C(C)C)c5c4)n3)nc2)CC1.CS(=O)(=O)O", "OBSERVED_VALUE": 87}
{"SMILES_STRUCTURE": "Cc1cn(-c2cc(NC(=O)c3ccc(C)c(Nc4nccc(-c5cccnc5)n4)c3)cc(C(F)(F)F)c2)cn1", "OBSERVED_VALUE": 12}
{"SMILES_STRUCTURE": "CCN1CCN(c2ccc(Nc3cc(N(C)C(=O)Nc4c(Cl)c(OC)cc(OC)c4Cl)ncn3)cc2)CC1", "OBSERVED_VALUE": 38}

====

- Tested on: U2OS
- METHOD_NOTES: Incucyte cell viability with U2OS; note: filed as whole numbers so only -1 and 0 and 1 occur
- Assay type: toxicity, cell-based
- PROTOCOL_CONDITIONS: human, 6 h, 10 µM, compound concentration 10 uM, replicate number 1, timepoint 6 hours

{"COMPOUND": "C[C@@H]1CN(c2cc(-c3n[nH]c4ccc(OC5(C)CC5)cc34)ncn2)C[C@H](C)O1 [MLi-2]", "Growth Rate": 1}
{"COMPOUND": "O=C(Nc1nc2cccc(-c3ccc(CN4CCS(=O)(=O)CC4)cc3)n2n1)C1CC1 [FILGOTINIB]", "Growth Rate": 1}
{"COMPOUND": "CO[C@@H](C)c1c(Nc2ccc([C@@H](N(C)C(=O)C3CCS(=O)(=O)CC3)C(F)(F)F)cc2)cnc2cc(Cl)nn12 [NVS-MALT1-C]", "Growth Rate": 0}
{"COMPOUND": "COc1ccc(S(=O)(=O)N(CCO)c2ccccc2CN(C)C/C=C/c2ccc(Cl)cc2)cc1.O=P(O)(O)O", "Growth Rate": 0}
{"COMPOUND": "O=C(Nc1cccnn1)N1CCC(=Cc2cccc(Oc3ccc(C(F)(F)F)cn3)c2)CC1", "Growth Rate": 0}
{"COMPOUND": "COc1cc(N2CCN(C)CC2)ccc1Nc1ncc2c(n1)N(C)c1ccccc1C(=O)N2C", "Growth Rate": 1}
{"COMPOUND": "Nc1cc(F)ccc1NC(=O)/C=C/c1cnn(C/C=C/c2ccccc2)c1", "Growth Rate": 0}
{"COMPOUND": "COc1ccc(-c2ccc3c(N4CCOCC4)nc(N4C[C@@H](C)O[C@@H](C)C4)nc3n2)cc1CO [Ku-0063794]", "Growth Rate": 1}
{"COMPOUND": "OCCn1cc(-c2cnc3nnn(Cc4ccc5ncccc5c4)c3n2)cn1 [PF-04217903]", "Growth Rate": 1}
{"COMPOUND": "Cc1nnc2c3ccccc3c(N[C@@H](C)[C@H](c3ccccc3)N(C)C)nn12", "Growth Rate": 0}
{"COMPOUND": "FC(F)(F)c1cccc(-c2noc(-c3cc(-c4ccccc4)c(C(F)(F)F)s3)n2)c1", "Growth Rate": 1}
{"COMPOUND": "CCn1cc(-c2ccnc3[nH]c(-c4cccc(CN(C)C)c4)cc23)c(-c2ccc(NC(=O)N(C)C)cc2)n1 [GSK-1070916]", "Growth Rate": 0}
{"COMPOUND": "CCC(=N\\O)/C(C)=C/c1ccc(F)c(C)c1 [A-226]", "Growth Rate": 0}
{"COMPOUND": "Cc1cnc(Nc2ccc(F)cc2Cl)nc1-c1c[nH]c(C(=O)N[C@H](CO)c2cccc(Cl)c2)c1", "Growth Rate": 0}
{"COMPOUND": "CC(C)(C)OC(=O)N1CCCC1CNC1CCC(c2cc(F)ccc2F)(S(=O)(=O)c2ccc(Cl)cc2)CC1 (stereo not given) [GSI-NC]", "Growth Rate": 0}
